Entries and their TGI values follow.
- Test system: A498 renal
- assay-notes: NCI tumour cell line growth inhibition, 48 h

The cases that follow already have their TGI on record.
# molecule, TGI
data = [
    ("COC1=C(C)C(=O)c2c(c(COC(N)=O)c3n2CC(OC(C)=O)C3OC(C)=O)C1=O (centres undefined)", "1.34 µM"),
    ("CC1(C)CC2C(=O)c3ccccc3NC2c2ccccc21 (centres undefined)", "> 100 µM"),
    ("CCCCCCCCCc1nn2c(Cc3ccccc3)nnc2s1", "34.2 µM"),
    ("Cc1cc(I)cc(CN(C)CCCN2CCCC2)c1O", "33.6 µM"),
    ("N#Cc1nc(NC(=O)c2ccccc2C(=O)O)c(C#N)[nH]1", "> 100 µM"),
]

Problem: Return reported TGI; argument: FC(F)(F)c1cc(C2SCc3nc4ccccc4n32)cc(C(F)(F)F)c1 (centres undefined)
Solution: > 100 µM

Problem: I would be grateful if you could share the reported TGI for `C/C(=N\NC(=O)CC#N)c1c(O)cc(C)oc1=O` .
Solution: > 100 µM

Problem: Dear colleague, I am looking for the recorded TGI of the following molecule: `CNC(=O)CCCNC(=O)CCCC(=O)N(C)C`
Solution: > 100 µM

Problem: Could you share which TGI value was measured for CN(C)CC1CCC(CN(C)C)C1=O (centres undefined) ?
Solution: > 58.9 µM

Problem: Please give the measured TGI for this molecule: `COc1ccc(C(=O)NCCN(C)C)c2nc3ccccc3nc12`
Solution: 16.3 µM

Problem: Query (molecule): CC(=O)OCC1OC(N2C(=O)C(=O)c3ccccc32)C(OC(C)=O)C(OC(C)=O)C1OC(C)=O (centres undefined) ; field requested: TGI
Solution: > 100 µM

Problem: Query (molecule): `C=C1c2nc3ccccc3n2C=C(c2ccc(Cl)cc2)N1c1ccc(OC)cc1` ; field requested: TGI
Solution: > 100 µM

Problem: Query: TGI; subject: `O=C(N[C@@H](C[Se][Se]C[C@H](NC(=O)c1ccc(Br)cc1F)C(=O)O)C(=O)O)c1ccc(Br)cc1F`
Solution: > 100 µM

Problem: Bench note: what TGI did `COc1ccc(-c2cc(-c3ccccc3)[nH]c(=S)c2C#N)cc1` show?
Solution: 60.2 µM
